Biological target: T1, recombinant human TL1A (human, UniProt O95150 71-251)
T1 chain: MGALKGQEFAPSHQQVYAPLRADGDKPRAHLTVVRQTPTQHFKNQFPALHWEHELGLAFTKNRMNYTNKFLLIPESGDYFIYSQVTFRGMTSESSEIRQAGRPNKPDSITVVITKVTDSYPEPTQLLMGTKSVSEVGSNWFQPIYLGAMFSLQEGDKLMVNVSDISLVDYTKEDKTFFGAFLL
Experiment: cell-based or functional assay
Readout kind: Whole blood IFNγ assay IC50 (nM)
Lab book: enter the figure in nM, no units written.

Example cases with answers are listed next.
binder="TL1A-0293 (antibody, human IgG1, kappa, V domains shown, human IgG1 effector-function-minimized/kappa) VH: QVQLVQSGAEVKKPGASVKVSCKASGYDFTYYGVSWVRQAPGQGLEWMGWISTYNTVTHYAPSLQGRVTMTTDTSTSTAYMELRSLRSDDTAVYYCARESYYGSGAHRGGMDVWGQGTTVTVSS VL: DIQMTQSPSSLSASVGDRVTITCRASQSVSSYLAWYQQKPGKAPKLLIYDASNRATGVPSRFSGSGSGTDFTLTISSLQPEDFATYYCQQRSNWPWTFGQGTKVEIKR" result_value=0.986
binder="TL1A-0287 (antibody, human IgG1, kappa, V domains shown, human IgG1 effector-function-minimized/kappa) VH: QVQLVQSGAEVKKPGASVKVSCKASGYDFTYYGVSWVRQAPGQGLEWMGWISTYNDNTHYAQKLQGRVTMTTDTSTSTAYMELRSLRSDDTAVYYCARESYYGSGAHRGGMDVWGQGTTVTVSS VL: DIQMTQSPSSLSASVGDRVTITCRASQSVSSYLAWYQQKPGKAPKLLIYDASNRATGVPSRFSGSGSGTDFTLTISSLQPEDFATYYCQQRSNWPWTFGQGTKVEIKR" result_value=0.993

# evaluate next
Req: Reported Whole blood IFNγ assay IC50 for TL1A-0267 (antibody, human IgG1, kappa, V domains shown, human IgG1 effector-function-minimized/kappa) VH: QVQLVQSGAEVKKPGASVKVSCKASGYDYTYYGISWVRQAPGQGLEWMGWISTYNTNTHYAPSLQGRVTMTTDTSTSTAYMELRSLRSDDTAVYYCARESYYGSGAHRGGMDVWGQGTTVTVSS VL: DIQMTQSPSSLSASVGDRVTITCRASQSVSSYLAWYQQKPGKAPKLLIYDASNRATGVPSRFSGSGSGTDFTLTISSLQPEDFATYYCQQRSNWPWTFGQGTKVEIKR : what is it?
Resp: 0.94
